Value source: BindingDB's records for doi:10.1021/jm00045a011

target or test system: Arachidonate 5-lipoxygenase (Homo sapiens)
assay name: Tested for inhibitory activity against leukotriene B4 (LTB4) production in human neutrophils
measurement label: pIC50
pIC50 here: minus log base 10 of the concentration, concentration in moles per litre.

Cc1c(O)c(C)c2sc(NCc3ccc(S(N)(=O)=O)cc3)nc2c1C on Arachidonate 5-lipoxygenase (Homo sapiens) gives pIC50 = 7.52
